Tested on: Zika virus NS2B-NS3 protease (linked construct)
Protocol summary: Primary screen NINDS Rhodamine qHTS for Zika virus inhibitors (AID 1347160); further: nearly all actives have a fitted effect of over 55% in size
Test context: purified NS2B-NS3 protease, Rhodamine110 substrate fluorescence; series mostly up to 57.1 µM
Results filed as inconclusive are left out. The source made the active and inactive calls. The call rests on the fitted dose curve; in most records, active means well fitted inhibition curve with a large enough effect; inconclusive means small, poorly fitted or top-dose-only effect; inactive means no such curve, though single readings can be large or run the other way.
Returns: one label drawn from y for active, n for inactive

Below are worked cases with known answers.
COC(=O)C1C(CC(C)=O)C=CC(O)C12Oc1cc(C)cc(O)c1C2=O (centres undefined)
n
NC(=O)c1ccc(OCC2NC(=O)C3CCCN3C2=O)cc1 (centres undefined)
n
COc1cccc(-n2nc(C(=O)O)cc2-c2ccc(C3CCCCC3)c(Cl)c2)c1
y
COc1ccc2c(c1)O[C@H](O[C@@H]1O[C@H](CO)[C@@H](O)[C@H](O)[C@H]1O)C(=O)N2
n

Exercise: Identify the outcome logged in this assay for the molecule shown: CCCCCCc1cccc(NC(=O)[C@H](N)CCP(=O)(O)O)c1
Solution: n

Exercise: Identify the outcome logged in this assay for the molecule shown: CC(=O)c1c(C)cc(O[C@@H]2O[C@H](CO)[C@@H](O)[C@H](O)[C@H]2O)cc1O
Solution: n

Exercise: Identify the outcome logged in this assay for the molecule shown: CC(=O)N1CCN(NC(=O)c2ccc(F)cc2)CC1
Solution: n

Exercise: Identify the outcome logged in this assay for the molecule shown: O=C(O)CCc1cccc(O[C@@H]2O[C@H](CO)[C@@H](O)[C@H](O)[C@H]2O)c1O
Solution: n

Exercise: Identify the outcome logged in this assay for the molecule shown: C=CC(C)(O)CO[C@@H]1O[C@H](CO)[C@@H](O)[C@H](O)[C@H]1O (some centres undefined)
Solution: n

* * *

Tested on: CP203
Protocol summary: qHTS profiling for inhibitors of Plasmodium falciparum proliferation (AID 504749); further: nearly all actives have a fitted effect of over 60% in size
Test context: P. falciparum in erythrocytes, SYBR Green DNA, 72 h; series mostly up to 28.7 µM
Experimental: NIH National Institute of Allergy and Infectious Diseases [NIAID] NIH Chemical Genomics Center [NCGC] […] Because mature erythrocytes lack DNA, only Plasmodium-derived DNA is detected. NCGC Assay Protocol Summary: The SYBR Green viability assay was adapted from a method described previously (Plouffe et al., 2008). […] The following morning, fluorescence intensity at 485(14) nm excitation and 535(25) nm emission wavelengths was measured on an EnVision (Perkin Elmer) plate reader. […]
Inconclusive results are not listed. The source made the active and inactive calls. The call rests on the fitted dose curve; in most records, active means well fitted inhibition curve with a large enough effect; inconclusive means small, poorly fitted or top-dose-only effect; inactive means flat fitted curve, though single readings scatter.
Returns: one label drawn from active, inactive

Below are worked cases with known answers.
O=C(O)c1cc(=O)c2c3nc4ccccc4oc-3cc(=O)c2[nH]1
inactive
CCCCC(CC)COC(=O)CC(C(=O)OCC(CC)CCCC)S(=O)(=O)O (stereo not drawn)
inactive
C[C@]12O[C@H](C[C@]1(O)CO)n1c3ccccc3c3c4c(c5c6ccccc6n2c5c31)CNC4=O
active

Turning now to a further molecule:
Exercise: Identify the outcome logged in this assay for the molecule shown: CO[C@H]1C[C@@H]2CC[C@@H](C)[C@@](O)(O2)C(=O)C(=O)N2CCCC[C@H]2C(=O)O[C@H]([C@H](C)C[C@@H]2CC[C@@H](OCCO)[C@H](OC)C2)CC(=O)[C@H](C)/C=C(\C)[C@@H](O)[C@@H](OC)C(=O)[C@H](C)C[C@H](C)/C=C/C=C/C=C/1C
Solution: active

* * *

Tested target: Nicotinamide N-methyltransferase (Homo sapiens) (UniProt P40261)
Sequence (P40261 whole entry, looked up): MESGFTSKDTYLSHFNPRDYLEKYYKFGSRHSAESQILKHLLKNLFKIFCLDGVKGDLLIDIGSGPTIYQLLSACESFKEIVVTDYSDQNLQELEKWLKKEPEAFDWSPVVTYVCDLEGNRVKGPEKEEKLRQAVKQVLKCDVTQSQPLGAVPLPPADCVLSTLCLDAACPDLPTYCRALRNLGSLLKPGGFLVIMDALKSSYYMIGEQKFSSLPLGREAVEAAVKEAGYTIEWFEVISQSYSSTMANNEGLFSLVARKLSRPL
Protocol summary: Confirmatory Screen for Target Class Profiling of Small Molecule Inhibitors of Methyltransferases (AID 1745852)
Test context: MTase-Glo luminescence, SAH detection, recombinant enzyme; measured here: NNMT max response; stronger effect = lower value
Measured activity values are reported for all entries that follow.
Express your answer in %, writing the number without its unit.

The following molecules have reported results that may help.
COc1cc(C2Oc3c(OC)cc(/C=C/C(=O)OC[C@H]4O[C@@H](OC(C)(C)C(=O)O)[C@H](O)[C@@H](O)[C@@H]4O)cc3C2CO)ccc1O (stereo not given in full)
-0.56
C=C1[C@H]2[C@H](O[C@@H]3O[C@H](COC(=O)/C=C/c4cc(OC)c(O)c(OC)c4)[C@@H](O)[C@H](O)[C@H]3O)OC=C(C(=O)O)[C@H]2C[C@@H]1O
0
OC[C@H]1O[C@@H](Oc2ccc(O)c3cccc(O)c23)[C@H](O)[C@@H](O)[C@@H]1O
-18.4

Exercise: Endpoint output: activity of CC(CCC1C(C(=O)O)=CC(=O)CC1(C)C)O[C@@H]1O[C@H](CO)[C@@H](O)[C@H](O)[C@H]1O (stereo not given in full) . Value?
Solution: -5.15

Exercise: Endpoint output: activity of CC1CC(=O)C2=C(O1)OC1(C)CCC3C(C)(C)C=CC(=O)C3(C)C1C2 (stereo not given) . Value?
Solution: -84.9

Exercise: Endpoint output: activity of C=C(C)[C@H]1C[C@@H](O)C(=C)CC[C@@H](O)C(=C)[C@@H](O)C1 . Value?
Solution: 4.34

Exercise: Endpoint output: activity of C[C@@H]1O[C@@H](O[C@H]2[C@H](OC(=O)C34CCC(C)(C)CC3C3=CCC5C6(C)CC(O)C(O[C@@H]7O[C@H](CO)[C@@H](O)[C@H](O)[C@H]7O)C(C)(C(=O)O)C6CCC5(C)C3(CO)CC4)O[C@H](C)[C@H](O)[C@@H]2O)[C@H](O)[C@H](O)[C@H]1O[C@@H]1OC[C@@H](O)[C@H](O)[C@H]1O (stereo not given in full) . Value?
Solution: -3.41

* * *

Tested target: Guanidinoacetate N-methyltransferase (Homo sapiens) (UniProt Q14353)
Protocol summary: Confirmatory Screen for Target Class Profiling of Small Molecule Inhibitors of Methyltransferases (AID 1745852); on activity change, negative = inhibition: on the % scale 0 is the no-effect control and ±100 the full control effect
Test context: MTase-Glo luminescence, SAH detection, recombinant enzyme; at 57.3 µM (top of the series) unless noted
Readout name: activity change, negative = inhibition

C=C1C(O[C@@H]2O[C@H](CO)[C@@H](O)[C@H](O)[C@@H]2O)CC2C(C)(C)C(O)CCC2(C)C1CC/C(C)=C\CO (stereo partly specified)
0% [at 29.8 µM]
COc1cc(C(O)C(CO)Oc2ccc(CCCO[C@@H]3O[C@@H](C)[C@H](O)[C@@H](O)[C@H]3O)cc2OC)ccc1O (stereo partly specified)
-3.44% [at 29.8 µM]
CC1=CC(=O)CC(C)(C)C1CCC(C)OC1OC(COC(=O)c2cc(O)c(O)c(O)c2)C(O)C(O)C1O (stereo unspecified)
0% [at 29.8 µM]
COC(=O)C1=COC(OC2OC(CO)C(O)C(O)C2O)C2C1CC(OC(=O)C(O)CC(=O)O)C2C (stereo unspecified)
1.08% [at 29.8 µM]
COc1ccc(/C=C/C(=O)O[C@@H]2[C@@H](OC(C)=O)[C@@H](OC(C)=O)[C@H](O[C@H]3[C@@H]4C=CO[C@@H](O[C@@H]5O[C@H](CO)[C@@H](O)[C@H](O)[C@H]5O)[C@@H]4[C@@]4(CO)O[C@@H]34)O[C@H]2C)cc1O
-5.06% [at 19.1 µM]
CC1(C)CCC2(C(=O)OC3OC(COC4OC(CO)C(O)C(O)C4O)C(O)C(O)C3O)CCC3(C)C(=CCC4C5(C)CCC(O)C(C)(C(=O)O)C5CCC43C)C2C1O (stereo unspecified)
2.03% [at 19.1 µM]
CC1(CO)CC[C@]2(C(=O)O[C@@H]3O[C@H](CO)[C@@H](O)[C@H](O)[C@H]3O)CC[C@]3(C)C(=CCC4[C@@]5(C)C[C@H](O)[C@H](O[C@@H]6OC[C@@H](O)[C@H](O)[C@H]6O)[C@@](C)(CO)C5CC[C@]43C)C2C1 (stereo partly specified)
0.83% [at 19.1 µM]
C[C@@H]1O[C@@H](O[C@H]2[C@H](OC(=O)C34CCC(C)(C)CC3C3=CCC5C6(C)CC(O)C(O[C@@H]7O[C@H](CO)[C@@H](O)[C@H](O)[C@H]7O)C(C)(C(=O)O)C6CCC5(C)C3(CO)CC4)O[C@H](C)[C@H](O)[C@@H]2O)[C@H](O)[C@H](O)[C@H]1O[C@@H]1OC[C@@H](O)[C@H](O)[C@H]1O (stereo partly specified)
-4.58% [at 19.1 µM]

Exercise: Endpoint output: activity change, negative = inhibition of O=C(O[C@@H]1O[C@H](CO)[C@@H](O)[C@H](O)[C@H]1O)c1c(O)cc(O)cc1/C=C/c1ccccc1 . Value?
Solution: 2.61% [at 29.8 µM]

Exercise: Endpoint output: activity change, negative = inhibition of C/C=C(\C)C(=O)O[C@H]1[C@@H](O[C@]2(COC(=O)CC(C)C)O[C@H](COC(=O)C(C)C)[C@@H](OC(C)=O)[C@@H]2O)O[C@H](COC(C)=O)[C@@H](O)[C@@H]1O . Value?
Solution: 0% [at 19.1 µM]

Exercise: Endpoint output: activity change, negative = inhibition of CC(C)(O)C1CC=C(C(=O)OCC2OC(Oc3c(O)cc(C(=O)O)cc3O)C(O)C(O)C2O)CC1 (stereo unspecified) . Value?
Solution: -3.66% [at 29.8 µM]
